Test system: DU-145
Assay: Growth inhibition of human DU145 cells after 96 hrs by trypan blue exclusion assay
Assay type: functional
Settings: DU-145, 96 h
experimentalEndpoint: GI50

# example entries with known answers
compoundStructure	systemUnderTest	GI50
CN(C)c1ccc(/C=C(/SCc2ccccc2Cl)C(=O)c2ccc(Cl)cc2)cc1	DU-145	> 100 µM
Cc1ccc(/C=C(/SCc2ccc(F)cc2)C(=O)c2ccc(Cl)cc2)s1	DU-145	> 100 µM

Consider the record given below.
// query Give GI50 (DU-145) of the following molecule: COc1cc(OC)c(/C=C(/Sc2ccc(C)cc2)C(=O)c2ccc(Cl)cc2)c(OC)c1
// result > 100 µM
